Biological target: T1, human CD22-ECD-His protein (human, UniProt P20273 20-687)
T1 construct: Made in house in HEK293E; also called hCD22-ECD-His; recombinant human CD22-ECD His protein; not shown: His tag
T1 sequence: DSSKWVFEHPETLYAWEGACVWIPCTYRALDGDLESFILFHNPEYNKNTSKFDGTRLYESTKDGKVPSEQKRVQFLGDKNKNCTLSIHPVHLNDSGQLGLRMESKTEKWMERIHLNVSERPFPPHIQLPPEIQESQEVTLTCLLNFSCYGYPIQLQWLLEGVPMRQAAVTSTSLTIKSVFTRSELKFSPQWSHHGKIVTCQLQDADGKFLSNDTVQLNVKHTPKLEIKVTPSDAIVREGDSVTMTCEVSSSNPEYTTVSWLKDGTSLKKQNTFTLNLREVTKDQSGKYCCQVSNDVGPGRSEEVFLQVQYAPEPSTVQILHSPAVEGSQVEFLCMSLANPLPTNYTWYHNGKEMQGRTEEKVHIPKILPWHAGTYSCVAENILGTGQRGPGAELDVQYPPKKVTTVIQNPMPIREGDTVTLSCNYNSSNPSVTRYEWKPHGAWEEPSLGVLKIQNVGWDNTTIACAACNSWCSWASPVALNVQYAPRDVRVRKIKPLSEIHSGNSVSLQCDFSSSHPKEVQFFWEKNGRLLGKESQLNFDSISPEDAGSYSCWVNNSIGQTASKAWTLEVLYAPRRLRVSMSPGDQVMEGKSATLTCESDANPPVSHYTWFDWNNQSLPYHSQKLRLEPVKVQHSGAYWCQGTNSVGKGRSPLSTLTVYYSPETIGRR
Experiment: ELISA, Ab 0.01 nM
endpointLabel: OD450 (OD450)

>>> observedresult("F2.127.11 (antibody, human IgG1, lambda, V domains shown, Human-murine chimeric IgG1, lambda) VH: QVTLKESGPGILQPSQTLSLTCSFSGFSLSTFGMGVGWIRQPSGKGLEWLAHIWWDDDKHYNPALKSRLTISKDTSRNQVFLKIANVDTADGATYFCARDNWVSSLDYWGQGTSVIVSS VL: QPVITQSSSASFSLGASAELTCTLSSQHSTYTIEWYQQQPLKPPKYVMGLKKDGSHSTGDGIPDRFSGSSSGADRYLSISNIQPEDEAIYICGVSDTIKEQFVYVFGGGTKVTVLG")
1.34
>>> observedresult("F1.245.2 (antibody, human IgG1, kappa, V domains shown, Human-murine chimeric IgG1, kappa) VH: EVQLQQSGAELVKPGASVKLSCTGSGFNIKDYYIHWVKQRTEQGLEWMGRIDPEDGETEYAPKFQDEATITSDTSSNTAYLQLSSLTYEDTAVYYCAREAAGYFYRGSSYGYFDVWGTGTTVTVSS VL: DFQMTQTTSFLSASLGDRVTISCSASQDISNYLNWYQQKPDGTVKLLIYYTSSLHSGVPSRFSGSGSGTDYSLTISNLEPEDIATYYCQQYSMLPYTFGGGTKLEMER")
2.3
>>> observedresult("F2.180.16 (antibody, human IgG1, lambda, V domains shown, Human-murine chimeric IgG1, lambda) VH: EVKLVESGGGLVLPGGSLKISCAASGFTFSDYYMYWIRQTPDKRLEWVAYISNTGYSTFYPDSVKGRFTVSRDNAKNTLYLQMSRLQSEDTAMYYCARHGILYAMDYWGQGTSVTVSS VL: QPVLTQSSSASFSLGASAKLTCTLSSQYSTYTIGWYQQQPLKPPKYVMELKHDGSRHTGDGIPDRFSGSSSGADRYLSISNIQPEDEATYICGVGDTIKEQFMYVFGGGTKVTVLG")
1.55
>>> observedresult("F1.120.15 (antibody, human IgG1, kappa, V domains shown, Human-murine chimeric IgG1, kappa) VH: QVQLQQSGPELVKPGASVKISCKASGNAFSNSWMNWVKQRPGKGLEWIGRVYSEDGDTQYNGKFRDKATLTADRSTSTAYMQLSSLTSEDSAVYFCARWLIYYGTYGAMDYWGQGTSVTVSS VL: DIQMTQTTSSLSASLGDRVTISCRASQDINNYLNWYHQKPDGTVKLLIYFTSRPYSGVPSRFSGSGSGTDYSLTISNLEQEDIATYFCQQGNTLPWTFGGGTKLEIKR")
2.28
>>> observedresult("F2.99.1 (antibody, human IgG1, lambda, V domains shown, Human-murine chimeric IgG1, lambda) VH: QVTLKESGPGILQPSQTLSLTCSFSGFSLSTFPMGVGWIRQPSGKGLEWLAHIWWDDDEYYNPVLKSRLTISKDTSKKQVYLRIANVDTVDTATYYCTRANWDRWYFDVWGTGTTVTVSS VL: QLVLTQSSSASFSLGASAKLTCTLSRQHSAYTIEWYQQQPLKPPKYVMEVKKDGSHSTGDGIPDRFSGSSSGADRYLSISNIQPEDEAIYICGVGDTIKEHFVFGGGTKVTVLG")
1.45
